Test: NCI Yeast Anticancer Drug Screen. Data for the rad50 strain (AID 155);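 also: 0% = growth of vehicle-only cultures of the same strain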
Conditions: S. cerevisiae rad50 strain growth inhibition; at 50.0 µM (retest, dose inferred, filed as 5.0)
The panel holds about 79,000 compounds, 15% with a hit somewhere; the sample as a whole holds those more often. Activity calls are given as the source filed them. Rule as the data show it: active = growth inhibition above about 70%; inactive = the rest.
// allowed return values: yes (1) (active), no (0) (inactive)

Ask: Which outcome was entered for the molecule COc1ccc(N=N/N=c2\sc3cc(OC)ccc3n2C)cc1 in this test?
Result: yes (1)

Ask: Which outcome was entered for the molecule C[Si](C)(c1ccccc1)C1CC(=O)CC(=O)C1 in this test?
Result: no (0)

Ask: Which outcome was entered for the molecule COC(=O)C12Oc3ccc(-c4ccc5c(c4O)C(O)=C4C(=O)CC(C)C(O)C4(C(=O)OC)O5)c(O)c3C(O)=C1C(=O)CC(C)C2O (stereo unspecified) in this test?
Result: yes (1)

Ask: Which outcome was entered for the molecule O=C(CC1(O)C(=O)Nc2c(Cl)ccc(Cl)c21)c1ccc(Cl)cc1Cl (stereo unspecified) in this test?
Result: no (0)

Ask: Which outcome was entered for the molecule COc1ccc(C2CC(CO)ON2c2ccccc2)cc1 (stereo unspecified) in this test?
Result: no (0)

Ask: Which outcome was entered for the molecule Nc1cc2c(c[n+](CCCCCCCCCC[n+]3cc4c5ccccc5c(N)cc4c4ccccc43)c3ccccc23)c2ccccc12 in this test?
Result: yes (1)

Ask: Which outcome was entered for the molecule Nc1ccc(/C=C/c2ccccc2)cc1 in this test?
Result: no (0)

Ask: Which outcome was entered for the molecule COc1cc2c(cc1O)C1Cc3ccc(OC)c(O)c3C(C2)N1C (stereo unspecified) in this test?
Result: no (0)

Ask: Which outcome was entered for the molecule CC(C)N=C1NS(=O)(=O)c2ccccc21 in this test?
Result: no (0)

Ask: Which outcome was entered for the molecule CN1c2ccccc2C(C)(C)C12C=Cc1cc(O)ccc1O2 (stereo unspecified) in this test?
Result: no (0)

Ask: Which outcome was entered for the molecule CN(C)c1cccc(F)c1C(=O)NC(=O)Nc1ccc(Cl)cc1 in this test?
Result: no (0)
